METHOD: yeast display, Sf9 membrane polyspecificity reagent, FACS + sequencing; frameworks hold sequencing errors
OBSERVED PROPERTY: polyreactivity (PSR sort gate)

Past entries and their recorded results:
SEQUENCE	polyreactivity (PSR sort gate)
QDQLVESGGGLVQAGGSLRLSCAASGRIFAGYAMGWYRQAPGKERELVATISSGGSTYYADSVKGRFTISRDNAKNTVYLQMHSLKPEDTAVYYCAAEYGTRQYSSYYKLFNYWGQGTQVTVSS	low polyreactivity
QVQLVESGGGLVQAGGSLRLSCAASGSIFYLYVMGWYRQAPGKERELVAAINWSGSRTYYADSVKGRFTISRDNAKNTVYLQMNSLKPEDTAVYYCNAVRATGQASQEGEYWGQGTQVTVSS	high polyreactivity
QVQLVESGGGLVPAGGSLRLSCAASGRTFAGNAMGWYRPAPGTERELVAVISRGGSTYYADSVKGRFTISRDNAKNTVYLQMNSLKPEDTAVYYCAARLRTTSVRGRYDYWGQGTQVTVSS	high polyreactivity
QVQLVESGGGLVQAGGSLRLSCAASGSTLVTYAMGWSRQAPGTERELVAAISYSGGSTYADSVKGRFTISRDNAKNTVYLQMNSLKPEDTAVYYCNSDTSVDVRFDYWGQGTQVTVSS	low polyreactivity
QVQLVESGGGLVQAGGSLRLTSAASGSIFRYYTMGWYRHAPRKERELVAAISRNGGSTYYADSVKGRFTISRDNAKNSVYLQMNSLKPVDTAVYYCNADGGDWFGYVGMDYWGQGTQVTVSS	high polyreactivity
QVQLVESGGGLVQAGGSLRLSCAASGSIFYRYAMGWYRQAPGKERELVASISKSGGSTYYADSVKGRFTISRDNAKNTVYLQMNSLKPEDTAVYYCAKKPRGTVYRFDYWGQGTQVTVSS	high polyreactivity
QVQLVESGGGLVQAGGSLRLSCAASGNTFVYNDMGWSRQAPGKERELVADIRYSGSTYYADSVMGRFTISRDNAKNTVYLQMNSLKPEDTAVYYCAKAYYVLSWMGYWGQGTPVTVSS	low polyreactivity
QVQLVESGGGLVQAGGSLRLSCAASGFIFRHYAMGWYRQSPGKAREMVAVINWSGSSTYYADSVKGRFTISRDNEKNTVFLQMNSLKPEDTAVYYCAVRSLRVDKYGYWGLGTQVTVSS	high polyreactivity

Write down polyreactivity (PSR sort gate) measured for item `QVQLVESGGGLVQAGGSLRLSCAASGRTFSAYAMGWYRQAPGKEREFVAAITFNTGSTYYADSVKGRFTISRDNAKNTVYLQMNSLKPEDTAVYYCAAALVGSVGYKGFDGFDYWGQGTQVTVSS`
low polyreactivity

Let me know recorded polyreactivity (PSR sort gate) for `QVQLVESGGGLVPAGGSLRLSCAASGSIFVGYAMGWYRQAPGKERELVADITVGGGSTFYADSVKGRFTISRDNAKNTVYLQMTSLKPEDTAVYYCAKYAGVYEYDYWGQGTQVTVSS` , thanks.
low polyreactivity

Indicate the recorded polyreactivity (PSR sort gate) value for this sequence: `QVQLVESGAGLVQAGGSLRLSCAASGHTFYYNTMGLYRQAPGKERELVAVISWSGSRTYYADSVKGRFTISRDYAKNTVYLQMNSLKPEDTAVSYCNAVYSHRREYWGEGTQVTVSS`
high polyreactivity

###

METHOD: yeast display, Sf9 membrane polyspecificity reagent, FACS + sequencing; frameworks hold sequencing errors

SEQUENCE	polyreactivity (PSR sort gate)
QGQLVESGGGLVQAGGSLRLSCAASGITFPGYAMGWSRQAPGKERELVAVIRKSGTSTYYADSVKGRFTISRDNEKNTVYLQMNSLKPEDTAVYYCADGGPSTVDVYWGQGTQVTVSS	low polyreactivity
QVQLVDSGGGLVQAGGSLRLSCAASGAIFDIYGMGWYRQAPGKERELVASISGGAGSTNYADSVKGRFTISRDNAKNTVYLQMNSLKPEDTAVYYCAAEVYVPDYFQHKFDVEYEYWGHGTQVTVSS	low polyreactivity
QVQLVESGGGLVQAGGSLRLSCAASGLTFYDYAMGWYRQAPGKERELVADIDFNGGSTSYADSVKGRFTISRDNAKNTVYLQMNSLKREDTAVYYCNTRDRGDVVTGLDYWGQGTQVTVSS	low polyreactivity

###

METHOD: yeast display, Sf9 membrane polyspecificity reagent, FACS + sequencing; frameworks hold sequencing errors
OBSERVED PROPERTY: polyreactivity (PSR sort gate)

# count of solved cases: 5
SEQUENCE	OBSERVED PROPERTY	EXPERIMENTAL RESULT
QVQLVESGGGLVQAGGSLRLSCAASGSTNSQYAMGWYRQAPGKERELVAAITTSDGSTNYADSVKGRFTISRDNAKNTVYLQMNSLKPEDTAVYYCNTEYFYFSFGYWGQGTQVTVSS	polyreactivity (PSR sort gate)	low polyreactivity
QVQREESGGGLVQAGGSLRLSCAASGSILYYNAMGWYRQAPGKEREFVAGISSSGGSTYYADSVKGRFTISRDNAKNTVYLQMKSLQPEENAVYYCAKRTYWRRGWCFDFWGQGTQVTVSS	polyreactivity (PSR sort gate)	high polyreactivity
QVQLVESGGGLVQAGGSLRLSCAASGRILTYYAMGWYRQAPGKERELVASISSNGGTYYADSVKGRFTISRDNAKNTVYLQMNSLKPEDTAVYYCNAKRVARYQYGASYNYWGQGTQVTVSS	polyreactivity (PSR sort gate)	high polyreactivity
QVQLVESGGGLVQAGGSLRLSCAASGSIFDYNTMGWYRQAPGKERELVAAISSNGGSTYYADSVKGRFTISRDNAKNTVYLQMNSRNPEDTAVYYCAVSIYVYHLDLEYWGQGTQVTVSS	polyreactivity (PSR sort gate)	low polyreactivity
QVQLVESGGGLVQAGGSLRLSCAASGGTFLYYMGWYRQAPGKEMELVAAITFSGGSTYYADSVKGRFTISRDNAKNTVYLQMNSLKPEDTAVYYCAAGWYDWPKYLLSVYTYYLYDSWGQGTQVTVSS	polyreactivity (PSR sort gate)	low polyreactivity

Return polyreactivity (PSR sort gate) for the following sequence: `QVQLEESGGGLVQAGGSLRLSCAASGSIFRRNVMGWYRQAPGKERELVADINYSGGSTFYADSVKGRFTISRDNAKNTVYLQMNSLKPEDTAVYYCKSSPYREKHGYWGQGTQVTVSS`
low polyreactivity

Report polyreactivity (PSR sort gate) for `QVQLVESGGGLVQAGGSLRLCCAASGSTFGWNAMRSYRQAPGNERELVAAISSSGGITYYADSVKGRFPISRDNAKNTVYLQMNSLKPEDTAVYYCAAERDDDWFNYWGQGTQVTVSS`
low polyreactivity

Return the recorded polyreactivity (PSR sort gate) value; entry: `QVQLVESGGGLVQAGGSLRLSCASSGSTFPRNAMGWYRQAPGKERELVAAITRSGANTHYADSVKGRFTISRDNAKNTVYLQMNSLKPEDTAVYYCAARSFTAYLGYYWGQGTQVTVSS`
high polyreactivity

Report polyreactivity (PSR sort gate), nothing else, for this sequence: `QVQLVESGGGLVQAGGSLRLSCAASGRIFVRNGMGWYRQAPGKERELVAAISASGGNTYYADSVKGRFTISRDNAKNTVYLQMNSLKPEDTAVYYCATTRRVPGEYWGQGTQVTVSS`
high polyreactivity

Determine its reported polyreactivity (PSR sort gate): `QVQLVESGGGLVQAGGSLRLSCAASGRTFSVYTMGWYRQAPGKERELVASISRSGGRTYYADSVKGRFTISRDNAKNTVYLQMNSLKPADTAVYYCAARWYSASALKYYYWGQGTQVTVSS`
high polyreactivity

###

METHOD: yeast display, Sf9 membrane polyspecificity reagent, FACS + sequencing; frameworks hold sequencing errors
OBSERVED PROPERTY: polyreactivity (PSR sort gate)

Below, each entry is followed by its recorded polyreactivity (PSR sort gate) result.
SEQUENCE	polyreactivity (PSR sort gate)
QVQLVESGGGLVQAGGSLRLSCAASRSIFPLYAMGWYRQAPGKERELVAAITYSGGRTYYADSVKGRFTISRDNAKNTVYLQMISLKPEDTAVYYCNTRQRVIDDYWGQGTQVTVSS	high polyreactivity
QVQLVDSVGGLVQAGGSLRISCAASGSIFGFYAMGWYRQSPGKERELVAAISQRGGNTYYADSVKRRFTISRDNAKNTVYLQMNSLKPEDTAFYFCASDKHPYKRHWYYTYDYWGLGTQVTVSS	high polyreactivity
QVQLVESGGGLVQAGGSLRLSCAASGSNIYVYAMGWYRQAPGKERELVAAISSSSDSTYADSVKGRFTISRDNAKNTVYLQMNSLKPEDTAVYYCNKKNAVYFAYDYWGQGTQVTVSS	low polyreactivity
QVQLGESGGGLVQAGGSLRLSCAASGRIFAGYAMGWYRQAPGKERELVATISSGGSTYYADSVKGRFTISRDNAKNTVYLQMHSLKPEDTAVYYCAAEYATRQYSSYYNLFNYCGQGTQVTVSS	low polyreactivity
LVQLVESGVGLVHAGRSLRLSCAASGSIFPYYTMGWYRPAPGKERELVAAISGSGGSTYYADSVKGRFTISRDNAKNTVYLQMNSLKPEYTAVYYCAAYRRTWFDYWGQGTQVTVSS	high polyreactivity
QVQLVESGGGLVQAGGSLRLSCAASGIIFSSYAMGWYRQAPGKERELVADISYTGGSTYYADSVKGRFTISRDNAKNTVYLQMNSLKPEDTAVYYSAAGVYLHYSVDYWGQGTQVTVSS	low polyreactivity
QVQLVESGGGLVQAGGSLPLSCAASGSIFKTYAMGWYREAPGKERELVAAIRDSGDRTYYADSVKGRFTISRDNAKNTVYLQMNSLKPEDTAVYYCNARWQEALKYDYWGQGTQVTVSS	low polyreactivity
QVQLVESGGGLVQAGGSLRLSCAASGSTFGYYAMGWYRQAPGKERELVAAISYRSGSTYYADSVNGRFTISRDNAKNTVYLQMNSLKPEDTAVYYCAPVIQRQQRYEYWGQGTQVTVSS	high polyreactivity
QVQLVESGGGLVQAGGSLRISCAASGRIFSFYAMGWYRQAPGKERELVAAISYSDGSTYYADSVKGRFTISRDNAKNTVYLQMNSLKPEDTAVYYCAKYGYDHDYNYWGQGTQVTVSS	low polyreactivity
QVQLVESGGGLVKAGGSLRLSCAASGSIFYSYAMGWYRQAPGKERELVAAITDSGDSTYYADSVKGRFTISRDYAKNTVYLQMNSLKPEDTAVYYCAAGFYPYYYWGLGTQVTVSS	low polyreactivity

Supply reported polyreactivity (PSR sort gate) belonging to this sequence: `QVQLVESGGGLVQAGGSLRLSCAASGRTFTRYAMGWYRQAPGKERELVASITTGGRTYYADSVKGRFTISRDNAKNTVYLQMNSLKPEDTAVYYCAARTYGGFEYWGQGTQVTVSS`
high polyreactivity
